Data origin: patent US20260234157A1

Molecular target: AR protein (Homo sapiens)
Construct: degradation activity of the compounds disclosed in the present disclosure on AR protein in VCaP cells; host or cells: VCaP
Sequence (P10275 whole entry): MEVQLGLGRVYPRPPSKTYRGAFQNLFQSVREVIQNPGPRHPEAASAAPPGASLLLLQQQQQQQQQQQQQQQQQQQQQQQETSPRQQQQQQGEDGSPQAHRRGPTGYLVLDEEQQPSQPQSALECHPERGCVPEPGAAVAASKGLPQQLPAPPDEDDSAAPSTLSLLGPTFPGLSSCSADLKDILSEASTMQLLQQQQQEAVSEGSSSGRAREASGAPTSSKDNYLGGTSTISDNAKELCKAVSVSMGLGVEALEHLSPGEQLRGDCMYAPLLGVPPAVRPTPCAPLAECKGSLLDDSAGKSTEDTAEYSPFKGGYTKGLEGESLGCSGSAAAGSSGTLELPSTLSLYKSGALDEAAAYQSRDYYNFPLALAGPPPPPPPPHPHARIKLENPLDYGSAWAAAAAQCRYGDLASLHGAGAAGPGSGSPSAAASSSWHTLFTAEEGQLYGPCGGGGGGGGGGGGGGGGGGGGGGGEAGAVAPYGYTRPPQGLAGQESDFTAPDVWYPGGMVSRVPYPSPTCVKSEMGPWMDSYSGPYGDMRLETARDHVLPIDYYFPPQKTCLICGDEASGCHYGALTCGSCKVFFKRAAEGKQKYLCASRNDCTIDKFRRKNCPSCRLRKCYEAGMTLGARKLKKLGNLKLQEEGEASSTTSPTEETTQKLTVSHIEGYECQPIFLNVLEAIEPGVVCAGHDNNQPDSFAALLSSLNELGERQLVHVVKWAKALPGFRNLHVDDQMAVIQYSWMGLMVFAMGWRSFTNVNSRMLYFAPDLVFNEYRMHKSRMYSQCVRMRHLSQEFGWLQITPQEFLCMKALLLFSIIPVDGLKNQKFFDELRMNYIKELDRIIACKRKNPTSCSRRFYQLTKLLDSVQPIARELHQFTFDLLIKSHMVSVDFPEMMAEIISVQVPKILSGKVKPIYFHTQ
Assay: Degradation of AR protein in VCaP cells (Western blot)
Format: cell-based
Settings: compound at 10 nM, 8 hours, read-out: Degradation rate of the AR protein in VCaP cells, 10 nM (%)
Measured inhibition at 0.01 µM, listed per entry for reference.

COMPOUND	inhibition at 0.01 µM, %
N#Cc1ccc(O[C@H]2CC[C@H](NC(=O)c3ccc(N4CC[C@@H](CN5CCC6(CC5)COc5cc7c(cc56)C(=O)N(C5CCC(=O)NC5=O)C7=O)C4)nn3)CC2)cc1Cl (stereo partly drawn)	66
N#Cc1ccc(O[C@H]2CC[C@H](NC(=O)c3ccc(N4CCC(N5CCC6(CC5)COc5c6ccc6c5CN(C5CCC(=O)NC5=O)C6=O)CC4)nn3)CC2)cc1Cl (stereo partly drawn)	79
CCOC1(CN2CCC3(CC2)COc2c3ccc3c2CN(C2CCC(=O)NC2=O)C3=O)CCN(c2ccc(C(=O)N[C@H]3CC[C@H](Oc4ccc(C#N)c(Cl)c4)CC3)nn2)CC1 (stereo partly drawn)	58
